Observed IC50 for urease enzyme from the Jack bean (Canavalia ensiformis) (Canavalia ensiformis), reported per entry below.
Provide the measurement as a number trailed by its unit.

Respond only with IC50 recorded for `COc1ccc(-c2nnc3n2N=C(c2ccc(F)cc2)CS3)cc1`
6.93 µM

Look up IC50 of `COc1ccc(-c2nnc3sc(COc4ccc(O)cc4)nn23)cc1` and report it.
25.2 µM

Provide IC50 value for the following compound: `COc1ccc(-c2nnc3n2N=C(c2ccc(Cl)c(Cl)c2)CS3)cc1`
5.3 µM

Report measured IC50; entry is `COc1ccc(-c2nnc3n2N=C(c2ccc(C)cc2)CS3)cc1`
5.16 µM

Kindly indicate its recorded IC50. Item: `Fc1ccc(C2=Nn3c(nnc3-c3cccc(Br)c3)SC2)cc1`
3.33 µM

Answer with the recorded IC50 of `Cc1ccccc1OCc1nn2c(-c3cccc(Br)c3)nnc2s1` only.
9.63 µM

Identify measured IC50 associated with `COc1ccc(-c2nnc3sc(COc4ccc(C)cc4)nn23)cc1`
39 µM

Recall and state the measured IC50 for `O=[N+]([O-])c1ccc(C2=Nn3c(nnc3-c3cccc(Br)c3)SC2)cc1` .
7.72 µM

Quick one: give measured IC50 for `Cc1ccc(C2=Nn3c(nnc3-c3cccc(Br)c3)SC2)cc1`
5.56 µM

Dear colleague, please send me the reported IC50 for `COc1ccc(-c2nnc3sc(COc4ccccc4C)nn23)cc1` when you can.
12 µM

---

Please respond with reported log10 IC50 for every item in the list.
target-under-test: urease enzyme from the Jack bean (Canavalia ensiformis) (Canavalia ensiformis, UniProt P07374)
Sequence (P07374 whole entry, looked up): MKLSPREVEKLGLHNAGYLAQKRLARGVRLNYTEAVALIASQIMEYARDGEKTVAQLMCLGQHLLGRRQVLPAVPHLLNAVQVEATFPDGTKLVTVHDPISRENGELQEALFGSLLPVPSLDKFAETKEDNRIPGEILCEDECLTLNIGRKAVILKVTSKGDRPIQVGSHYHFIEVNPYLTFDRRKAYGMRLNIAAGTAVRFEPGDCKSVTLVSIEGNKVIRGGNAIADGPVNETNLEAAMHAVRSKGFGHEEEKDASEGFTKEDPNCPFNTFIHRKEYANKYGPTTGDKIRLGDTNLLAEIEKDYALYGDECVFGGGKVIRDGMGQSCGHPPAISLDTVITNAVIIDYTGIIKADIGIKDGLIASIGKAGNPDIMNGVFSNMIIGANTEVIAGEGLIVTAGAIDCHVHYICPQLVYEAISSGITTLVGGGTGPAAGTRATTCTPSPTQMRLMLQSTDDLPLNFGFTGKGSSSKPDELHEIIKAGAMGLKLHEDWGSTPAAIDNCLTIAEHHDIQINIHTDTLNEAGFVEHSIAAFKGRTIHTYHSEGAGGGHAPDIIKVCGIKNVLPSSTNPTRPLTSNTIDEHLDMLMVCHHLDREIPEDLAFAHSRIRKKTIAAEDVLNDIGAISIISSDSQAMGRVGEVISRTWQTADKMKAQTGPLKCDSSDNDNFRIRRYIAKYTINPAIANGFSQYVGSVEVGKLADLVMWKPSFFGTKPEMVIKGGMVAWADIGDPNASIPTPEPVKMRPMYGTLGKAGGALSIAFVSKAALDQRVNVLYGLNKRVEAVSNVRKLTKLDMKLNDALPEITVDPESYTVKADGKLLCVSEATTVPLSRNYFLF
# values: log10(IC50), units µM

Let me know recorded log10 IC50 for `COc1ccc(C2=Nn3c(nnc3-c3cccc(Br)c3)SC2)cc1` , thanks.
0.98

In one line, give reported log10 IC50 of the entry `Oc1ccc(OCc2nn3c(-c4cccc(Br)c4)nnc3s2)cc1` .
0.83

Item `Clc1ccc(C2=Nn3c(nnc3-c3cccc(Br)c3)SC2)cc1` : provide log10 IC50
1.06

Return the recorded log10 IC50 value; entry: `COc1ccc(C2=Nn3c(nnc3-c3ccc(OC)cc3)SC2)cc1`
0.77

Annotate the molecule `COc1ccc(-c2nnc3n2N=C(c2ccc(Cl)cc2)CS3)cc1` with its measured log10 IC50.
0.92

For `Brc1cccc(-c2nnc3n2N=C(c2cccc4ccccc24)CS3)c1` , write its log10 IC50.
0.86

Using the record for `Fc1ccc(OCc2nn3c(-c4cccc(Br)c4)nnc3s2)cc1` , state its measured log10 IC50.
1.67

Answer with reported log10 IC50 of `Oc1ccccc1OCc1nn2c(-c3cccc(Br)c3)nnc2s1`
0.65

Give the reported log10 IC50 for this molecule. `COc1ccc(-c2nnc3n2N=C(c2cccc4ccccc24)CS3)cc1`
1.02

Could you please provide reported log10 IC50 for `Clc1ccc(C2=Nn3c(nnc3-c3cccc(Br)c3)SC2)cc1Cl` ? Thanks!
1.11

Fill in log10 IC50 for record `Cc1ccc(OCc2nn3c(-c4cccc(Br)c4)nnc3s2)cc1`
0.67
